Test system: Escherichia coli TOP10;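 note: peptides expressed intracellularly from a pBAD plasmid library in pooled LB shake-flask culture, induced with 0.3% L-arabinose, DNA abundance read by NGS, three biological replicates, DESeq2 with apeglm shrinkage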
assay.text: shrunken log2 fold change of peptide-encoding DNA abundance (4.5 h post-induction vs induction); higher = less antimicrobial activity (less host growth inhibition)
stated.conditions: time post-induction: 4.5 h; library: site-saturation at positions 5, 18, 19, 20
Please mark met if the recorded shrunken log2 fold change is equal to or greater than 0.001, and not met if it falls below.

{"columns": ["monomer.sequence", "subject.of.test", "answer.label"],
 "data": [
  ["RRIRKRPPRLPRPRPRPVKSPRP", "Escherichia coli TOP10", "met"]
]}

Q) Reported shrunken log2 fold change reaches at least 0.001 for RRIRMRPPRLPRPRPRPEIIPRP ?
A) met

Q) Reported shrunken log2 fold change reaches at least 0.001 for RRIRVRPPRLPRPRPRPYEYPRP ?
A) not met

Ref: the supplement of paper PMC9112550
